Hello, the source for this data is PubChem BioAssay AID1645865, in case you need it.

- SYSTEM UNDER TEST: Ubiquitin carboxyl-terminal hydrolase 30 (Homo sapiens)
- ASSAY NOTES: inhibitors of ubiquitin-specific protease 30 deubiquitylating enzyme, concentration dependence, in vitro biochemical, validation of primary hits (AID 1645865)
- CONDITION INFO: purified USP30, Ub-rhodamine cleavage, fluorescence, 2 h
Calls of active or inactive are those of the source.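 The calls were made as follows: active = maximal inhibition of the USP30 enzyme reaching 30% or more across the dose series; inactive = the rest.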
Classes to choose from: class 1 for active, class 0 for inactive

O=S(=O)(Nc1ccc(O)cc1)c1ccc2oc3ccc(S(=O)(=O)Nc4ccc(O)cc4)cc3c2c1
class 1
CC1Oc2ccccc2C(=O)N(Cc2ccc([N+](=O)[O-])cc2)C1=O (stereo unspecified)
class 0
CCOc1ccc(-c2noc(-c3nn(-c4cccc(OC)c4)ccc3=O)n2)cc1
class 1

**Q:** Give the logged outcome of this assay for the following compound: CCOc1ccc(-c2cc3nc(C4CCN(C(=O)OC(C)(C)C)CC4)c(C(=O)Nc4cc(F)ccc4F)cn3n2)cc1
**A:** class 0

**Q:** Outcome logged for Cc1ccc(Cn2cc(-c3noc(-c4ccc[nH]4)n3)nn2)cc1 in this assay:
**A:** class 1

**Q:** Could you check what this test reported for Cc1cc(CSc2ncccc2C(=O)Nc2ccnn2Cc2cccnc2)no1 ?
**A:** class 0

**Q:** For COc1c(C)c(C(O)C(C)O)c2[nH]c3ccc(CC=C(C)C)cc3c2c1O (stereo unspecified) , which call appears in the assay record?
**A:** class 1

**Q:** I'd appreciate the recorded outcome for CC(=O)N1CCCC(c2nc(C)cc(-c3cc(F)ccc3C(=O)O)n2)C1 (stereo unspecified) from this test.
**A:** class 0

**Q:** Recorded call for O=S1(=O)CCN(Cc2ccccc2)c2c(F)nc(N3CCCCC3)c(F)c21 ?
**A:** class 0

**Q:** Per the records of this test, what outcome belongs to CCOc1ccc(-n2c(C)cc(/C=C(\C#N)c3nc4ccccc4[nH]3)c2C)cc1 ?
**A:** class 0
